test: chemical genetic growth profiling, strain panel (AID 1159580);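 further: tested at 20 µM; growth read once vehicle control cultures reached saturation at 30 °C; 1 = growth at the plate median or of vehicle wells; lower values mean less growth of the strain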; details: S. cerevisiae deletion strains, growth OD, locus YKL101W, strain HSL1, active compounds read low
Among all 5,500 compounds or so, about 2,000 (36%) were called active. About 18% were inconclusive and are not listed. This is one part of the list.
property.measured: normalized growth

1. Cc1nc(-c2cccnc2)nc(NCc2ccccc2)c1Cl
0.892
2. Clc1cc(Cl)cc(-c2nc(SCc3ccc(Cl)cc3Cl)n[nH]2)c1
0.891
3. Fc1cccc(Cl)c1CSc1n[nH]c(-c2cc(C(F)(F)F)cc(C(F)(F)F)c2)n1
0.889
4. Cc1nc(-c2ccccn2)nc(SCc2ccccc2)c1Cl
0.875
5. C=CCc1c(CCC)nc(-c2ccccn2)[nH]c1=O
0.896
6. O=C(NCC1COc2ccccc2O1)c1ccc(Cl)cc1 (stereo not drawn)
0.92
7. O=C(c1ccc(Cl)cc1)N(Cc1ccccc1)Cc1cccnc1
0.905
8. Nc1ccc(Sc2ccccc2)nc1Sc1ccccc1
0.913

* * *

test: chemical genetic growth profiling, strain panel (AID 1159580);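 further: tested at 20 µM; growth read once vehicle control cultures reached saturation at 30 °C; 1 = growth at the plate median or of vehicle wells; lower values mean less growth of the strain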; settings: S. cerevisiae deletion strains, growth OD, locus YBR009C, strain hhf1, active compounds read low
The campaign covered roughly 5,500 compounds. About 2,000 (36%) were called active. Roughly 18% stayed inconclusive and do not appear here. The list shows a part of the results.
Each entry below carries its recorded normalized growth.
property.measured: normalized growth

1) O=c1ccc2ccc(O)cc2o1
1.01
2) CC1(C)CC(O)C2(C)CCC3(C)C(=CCC4C5(C)CCC(O)C(C)(CO)C5CCC43C)C2C1 (stereo not given)
1.02
3) NNc1nncc2ccccc12
0.983
4) C/C=C1\[C@H]2C=C(C)C[C@]1(N)c1ccc(=O)[nH]c1C2
1.03
5) CC1(C)CC[C@]2(C(=O)O)CC[C@]3(C)C(=CCC4[C@@]5(C)CC[C@H](O)[C@@](C)(CO)C5CC[C@]43C)C2C1 (stereo not given in full)
1.02

* * *

experiment: chemical genetic growth profiling, strain panel (AID 1159580);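 further: tested at 20 µM; growth read once vehicle control cultures reached saturation at 30 °C; 1 = growth at the plate median or of vehicle wells; lower values mean less growth of the strain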; details: S. cerevisiae deletion strains, growth OD, locus YDR159W, strain sac3, active compounds read low
About 2,000 (36%) of roughly 5,500 compounds were called active. Not shown: some 18% with an inconclusive outcome. Some of the results follow.
property.measured: normalized growth

1) Cc1cc(-n2c(=O)[nH]c(=O)n(C)c2=O)ccc1Oc1ccc(SC(F)(F)F)cc1
0.532
2) CCOc1ccc2nc3cc(N)ccc3c(N)c2c1
1.06
3) CC(C)(Oc1ccc(CCNC(=O)c2ccc(Cl)cc2)cc1)C(=O)O
0.939
4) CCN1C[C@]2(OC(=O)c3ccccc3NC(C)=O)CCC(OC)[C@]34C1[C@H](CC23)[C@@]1(O)CC(OC)[C@H]2CC4C1(O)[C@H]2OC (stereo partly specified)
0.979
5) Cc1ccc(S(=O)(=O)NC(=O)NN2CC3CCCC3C2)cc1 (stereo unspecified)
0.991
6) CC(=O)O[C@H]1CC[C@@]2(C)C(CC[C@]3(C)C2CC=C2C4CC(C)(C)CC[C@]4(C)CC[C@]23C)C1(C)C (stereo partly specified)
0.998
7) CC1(C)CC[C@]2(C(=O)O)CC[C@]3(C)C(=CCC4[C@@]5(C)CC[C@@H](O)C(C)(C)C5CC[C@]43C)C2C1 (stereo partly specified)
1.04
8) C[C@@H]1CC[C@]2(C(=O)O)CC[C@]3(C)C(=CCC4[C@@]5(C)CC[C@H](O)C(C)(C)C5CC[C@]43C)C2[C@H]1C (stereo partly specified)
1
9) CCCCCCCCCCCC[C@H](C(=O)O)[C@@H](C)C(=O)O
0.902
10) COc1c(-c2coc3cc4c(cc3c2=O)CC(O)C(C)(C)O4)ccc2c1C=CC(C)(C)O2 (stereo unspecified)
0.973
11) NNC(=O)c1ccncc1
0.943
12) Nc1ccccc1C(=O)CC(N)C(=O)O (stereo unspecified)
0.981
13) Cc1ccnc(NS(=O)(=O)c2ccc(N)cc2)n1
0.968
14) C[C@]12CCC(=O)C=C1CCC1C2[C@@H](O)C[C@@]2(C)C1CC[C@]2(O)C(=O)CO (stereo partly specified)
0.948
15) C#C[C@]1(O)CCC2C3CCC4=C(CCC(=O)C4)C3CC[C@@]21C (stereo partly specified)
0.915
16) CC(CC(=O)C(O)C(C)(C)O)C1C(=O)CC2(C)C3=CCC4C(C)(C)C(OC5OCC(O)C(O)C5O)CCC45CC35C(O)CC12C (stereo unspecified)
1.02
17) Cc1ccc(N=CN(C)C=Nc2ccc(C)cc2C)c(C)c1
0.974
18) COC(=O)Nc1nc2ccc(C(=O)c3ccccc3)cc2[nH]1
0.861
19) C[C@H]1[C@H](C)CC[C@]2(CO)CC[C@]3(C)C(=CCC4[C@@]5(C)CC[C@H](O)C(C)(C)C5CC[C@]43C)[C@H]12 (stereo partly specified)
1.01
20) Cc1cc(C(C)(C)C)c(O)c(C(C)(C)C)c1
0.959
21) COc1ccc2c3c([nH]c2c1)C(C)=NCC3
1
22) CO[C@@]12[C@@H]3NC3CN1C1=C(C(=O)C(N)=C(C)C1=O)[C@@H]2COC(N)=O (stereo partly specified)
0.998
23) CNC(=O)O/N=C\C(C)(C)SC
0.965
24) COC1=C[C@@H]2[C@@H]3Cc4ccc(OC)c(O)c4[C@]2(CCN3C)CC1=O
0.967
25) COC(=O)Nc1nc2ccc(Sc3ccccc3)cc2[nH]1
0.99
26) COc1cccc2c1C(=O)c1c(O)c3c(c(O)c1C2=O)C[C@@](O)(C(C)=O)C[C@@H]3O[C@H]1C[C@H](N)[C@H](O)[C@H](C)O1
0.836
